Source listed as ChEMBL document CHEMBL3885861.

species: Rattus norvegicus; assay: Open TG-GATES - Regimen: Single; assay type: toxicity, organism-based, Sprague-Dawley; parameters: regimen Single, gender Male, age 6 weeks; details: in vivo, po, 10 mg/kg, 6 h, tissue Blood, route gavage, dose level Low
Measured WBC by item
// units = x10_2/uL; emit number, no label

Worked set:
structure-string: CN(C)CCCN1c2ccccc2CCc2ccc(Cl)cc21
quantity-name: WBC
recorded-measurement: 81.1

structure-string: CC1=C(/C=C/C(C)=C/C=C/C(C)=C/CO)C(C)(C)CCC1
quantity-name: WBC
recorded-measurement: 81.2

structure-string: CN(C)CCCN1c2ccccc2CCc2ccccc21
quantity-name: WBC
recorded-measurement: 92.4

Let us move to another entry and its WBC.
Find the measured WBC of CN(C)CCN(Cc1cccs1)c1ccccn1 and report it. 70.2

###

organism: Rattus norvegicus; experiment: Open TG-GATES - Regimen: Single; format: toxicity, organism-based, Sprague-Dawley; parameters: regimen Single, gender Male, age 6 weeks; conditions: in vivo, po, 0 mg/kg, 3 h, tissue Blood, route gavage, dose level Control
Documented Eos across a set of molecules
Write the answer as a number in %, unit excluded.

Give recorded Eos. CN1C(=O)CN=C(c2ccccc2)c2cc(Cl)ccc21 1

Retrieve Eos measured for COc1ccc2[nH]c([S+]([O-])Cc3ncc(C)c(OC)c3C)nc2c1 (stereo not given) and print it. 1

###

# MCV per entry
species on record: Rattus norvegicus; experiment: Open TG-GATES - Regimen: Daily Repeat; assay type: toxicity, organism-based, Sprague-Dawley; parameters: regimen Daily Repeat, gender Male, age 6 weeks; settings: in vivo, po, 10 mg/kg, […], tissue Blood, route gavage, dose level Low, time 28 day
The response must be a number in fL with no trailing unit.

Below, 3 compounds whose answers are already recorded.
compound: CC1=C(/C=C/C(C)=C/C=C/C(C)=C/CO)C(C)(C)CCC1
quantity-name: MCV
recorded-measurement: 54.6
//
compound: CN(C)CCN(Cc1cccs1)c1ccccn1
quantity-name: MCV
recorded-measurement: 58.6
//
compound: CN(C)CCCN1c2ccccc2CCc2ccccc21
quantity-name: MCV
recorded-measurement: 56.5

Then there is this compound:
Entry CC(C)OC(=O)C(C)(C)Oc1ccc(C(=O)c2ccc(Cl)cc2)cc1 [FENOFIBRATE] needs its MCV filled in; supply it. 57.9

###

species on record: Rattus norvegicus; assay: Open TG-GATES - Regimen: Single; format: toxicity, organism-based, Sprague-Dawley; design: regimen Single, gender Male, age 6 weeks; conditions: in vivo, po, 0 mg/kg, 3 h, tissue Plasma, route gavage, dose level Control
TC values by entry
Value expressed in mg/dL; do not type the unit.

molecule: COc1cc2c(c(OC)c1OC)-c1ccc(OC)c(=O)cc1[C@@H](NC(C)=O)CC2
display-unit: mg/dL
TC: 78.4

Tell me its TC given COC1=CC(=O)C[C@@H](C)[C@]12Oc1c(Cl)c(OC)cc(OC)c1C2=O as the entry. 85.8

Give reported TC value for CN(C)CCN(Cc1cccs1)c1ccccn1 70.4

Let me know recorded TC for CCOc1ccc(NC(=O)CC(C)O)cc1 (stereo not given) , thanks. 81.6

Specify reported TC for the molecule shown: NC(N)=Nc1nc(CSCCC(N)=NS(N)(=O)=O)cs1 77.4

###

organism: Rattus norvegicus; assay: Open TG-GATES - Regimen: Single; type: toxicity, organism-based, Sprague-Dawley; design: regimen Single, gender Male, age 6 weeks; conditions: in vivo, po, 300 mg/kg, 6 h, tissue Blood, route gavage, dose level Middle
quantity-name: Eos (%)
I only need the number, in %, no unit after it.

compound: CCOC(=O)CCC(=O)O[C@H]1[C@H](O[C@@H]2[C@@H](C)[C@H](O[C@H]3C[C@@](C)(OC)[C@@H](O)[C@H](C)O3)[C@@H](C)C(=O)O[C@H](CC)[C@@](C)(O)[C@H](O)[C@@H](C)C(=O)[C@H](C)C[C@@]2(C)O)O[C@H](C)C[C@@H]1N(C)C [ERYTHROMYCIN ETHYLSUCCINATE]
recorded-measurement: 0.8

compound: NC(N)=Nc1nc(CSCCC(N)=NS(N)(=O)=O)cs1 [FAMOTIDINE]
recorded-measurement: 1

compound: COC1=CC(=O)C[C@@H](C)[C@]12Oc1c(Cl)c(OC)cc(OC)c1C2=O [GRISEOFULVIN]
recorded-measurement: 1

Then there is this compound:
Please give measured Eos of the following entry: COc1ccc2[nH]c([S+]([O-])Cc3ncc(C)c(OC)c3C)nc2c1 (centres undefined) [OMEPRAZOLE] 1

###

species: Rattus norvegicus; test: Open TG-GATES - Regimen: Single; format: toxicity, organism-based, Sprague-Dawley; design: regimen Single, gender Male, age 6 weeks; conditions: in vivo, po, 0 mg/kg, 3 h, tissue Plasma, route gavage, dose level Control
quantity-name: Ca (mg/dL)
// note: answer is a bare numeric in mg/dL

Below: 5 compounds and their reported Ca.
compound: NNC(=O)c1ccncc1
display-unit: mg/dL
Ca: 10.9
--
compound: C[C@@H]1C[C@H]2[C@@H]3CCC4=CC(=O)C=C[C@]4(C)[C@@]3(F)[C@@H](O)C[C@]2(C)[C@@]1(O)C(=O)CO
display-unit: mg/dL
Ca: 10.9
--
compound: COC1=CC(=O)C[C@@H](C)[C@]12Oc1c(Cl)c(OC)cc(OC)c1C2=O
display-unit: mg/dL
Ca: 10.8
--
compound: CN(C)CCN(Cc1cccs1)c1ccccn1
display-unit: mg/dL
Ca: 10.3
--
compound: O=C(CCCN1CCC(O)(c2ccc(Cl)cc2)CC1)c1ccc(F)cc1
display-unit: mg/dL
Ca: 11.4

Please indicate Ca recorded for CCCNC(=O)NS(=O)(=O)c1ccc(Cl)cc1 [CHLORPROPAMIDE] 10.9

Specify Ca for Cc1ccc(C)c(OCCCC(C)(C)C(=O)O)c1 and stop. 11.3

Please give the documented Ca of COc1ccc2[nH]c([S+]([O-])Cc3ncc(C)c(OC)c3C)nc2c1 (configuration not stated) 10.8

Give the reported value of Ca for this record: CCOC(=O)CCC(=O)O[C@H]1[C@H](O[C@@H]2[C@@H](C)[C@H](O[C@H]3C[C@@](C)(OC)[C@@H](O)[C@H](C)O3)[C@@H](C)C(=O)O[C@H](CC)[C@@](C)(O)[C@H](O)[C@@H](C)C(=O)[C@H](C)C[C@@]2(C)O)O[C@H](C)C[C@@H]1N(C)C [ERYTHROMYCIN ETHYLSUCCINATE] 10.4

Give me measured Ca, please, for this compound: NC(N)=Nc1nc(CSCCC(N)=NS(N)(=O)=O)cs1 10.8

Return Ca (reported value) for this compound: CC1=C(/C=C/C(C)=C/C=C/C(C)=C/CO)C(C)(C)CCC1 10.6

Please list Ca recorded for the compound CCOc1ccc(NC(=O)CC(C)O)cc1 (configuration not stated) 10.6

###

KIDNEY_TOTAL values by entry
organism: Rattus norvegicus; test: Open TG-GATES - Regimen: Daily Repeat; format: toxicity, organism-based, Sprague-Dawley; design: regimen Daily Repeat, gender Male, age 6 weeks; conditions: in vivo, po, 0 mg/kg, […], tissue Kidney, route gavage, dose level Control, time 28 day
Unit g implied. Number only.

A selection of reference data follows.
compound: CCOc1ccc(NC(=O)CC(C)O)cc1 (stereo not drawn) [BUCETIN]
recorded-measurement: 2.9
--
compound: COc1ccc2[nH]c([S+]([O-])Cc3ncc(C)c(OC)c3C)nc2c1 (stereo not drawn) [OMEPRAZOLE]
recorded-measurement: 2.6
--
compound: CCCNC(=O)NS(=O)(=O)c1ccc(Cl)cc1 [CHLORPROPAMIDE]
recorded-measurement: 2.8

For NC(N)=Nc1nc(CSCCC(N)=NS(N)(=O)=O)cs1 [FAMOTIDINE] , write its KIDNEY_TOTAL. 2.8

Complete the entry with KIDNEY_TOTAL for CC1=C(/C=C/C(C)=C/C=C/C(C)=C/CO)C(C)(C)CCC1 [RETINOL] 2.7

Annotate the compound COC1=CC(=O)C[C@@H](C)[C@]12Oc1c(Cl)c(OC)cc(OC)c1C2=O [GRISEOFULVIN] with its measured KIDNEY_TOTAL. 2.8

Provide KIDNEY_TOTAL value for the following compound: CN(C)CCCN1c2ccccc2CCc2ccccc21 [IMIPRAMINE] 2.9

Output KIDNEY_TOTAL of NNC(=O)c1ccncc1 [ISONIAZID] 2.6

Query KIDNEY_TOTAL for O=C(CCCN1CCC(O)(c2ccc(Cl)cc2)CC1)c1ccc(F)cc1 [HALOPERIDOL] 2.8

Give recorded KIDNEY_TOTAL. CC(C)OC(=O)C(C)(C)Oc1ccc(C(=O)c2ccc(Cl)cc2)cc1 [FENOFIBRATE] 2.5

Annotate the compound CCOC(=O)CCC(=O)O[C@H]1[C@H](O[C@@H]2[C@@H](C)[C@H](O[C@H]3C[C@@](C)(OC)[C@@H](O)[C@H](C)O3)[C@@H](C)C(=O)O[C@H](CC)[C@@](C)(O)[C@H](O)[C@@H](C)C(=O)[C@H](C)C[C@@]2(C)O)O[C@H](C)C[C@@H]1N(C)C [ERYTHROMYCIN ETHYLSUCCINATE] with its measured KIDNEY_TOTAL. 2.8

Note down KIDNEY_TOTAL recorded for CN1C(=O)CN=C(c2ccccc2)c2cc(Cl)ccc21 [DIAZEPAM] 2.9

Supply KIDNEY_TOTAL value. Item: CN(C)CCN(Cc1cccs1)c1ccccn1 2.5
